Tested on: CAKI-1 renal
Test: NCI-60 one-dose screen, 48 h (100 = growth as untreated, 0 = no growth, -100 = all killed)
Details: 10 µM
The panel holds about 83,000 compounds, 20% with a hit somewhere; the sample as a whole holds those more often.
Categories are assigned from the measured growth using these intervals: low value: < 40%; medium value: ≥ 40% and < 90%; high value: ≥ 90%

These solved cases illustrate the format of a correct answer.
# compound, answer.label
measured = [
    ("O=C(c1ccc(Cl)cc1)c1no[n+]([O-])c1C(=O)c1ccc(Cl)cc1", "low value"),
    ("COc1ccc(/C=C2\\CCC3C(CCCC34OCCO4)C2=O)cc1 (configuration not stated)", "medium value"),
    ("C/C=C\\COc1cc(C)c(Cl)cc1Cl", "high value"),
    ("C=CCNCCCN1C(=O)c2ccc3c4c(ccc(c24)C1=O)C(=O)N(CCCNCC=C)C3=O", "low value"),
    ("COc1ccccc1Cn1cc2c(c1-c1ccccc1)CCc1cnoc1-2", "low value"),
]

Request: Could you tell me which band Cn1c(=O)c2[nH]c(C(O)c3ccc(Cl)cc3)nc2n(C)c1=O (configuration not stated) belongs to?
Response: high value

Request: Same for COc1cc2ccnc(C=O)c2cc1OC
Response: medium value

Request: Same for COc1ccc(C2CC(c3ccc(-c4ccccc4)cc3)=NN2c2ccc(S(N)(=O)=O)cc2)cc1 (configuration not stated)
Response: medium value

Request: Same for Cc1nc2sccn2c1-c1csc(Nc2cccc(Cl)c2C)n1
Response: medium value

Request: Same for Nc1cc2c(cc1Cl)-c1ccc(Cl)cc1C2=O
Response: high value

###

Tested on: SR leukemia
Test: NCI-60 one-dose screen, 48 h (100 = growth as untreated, 0 = no growth, -100 = all killed)
Conditions: 10 µM
This is part of a sample that, as a whole, favours compounds with a hit. Of some 83,000 tested, about 20% had one in any assay.
measured.parameter: growth (%)
Give the number; % is assumed, so skip it.

Guide cases for growth, answers given:
# compound, assay.result
measured = [
    ("Cc1cc(/C=C2\\SC(=Nc3ccccc3)N(C3CCCC3)C2=O)c(C)n1-c1ccc(Cl)cc1", -36.8),
    ("O=C(Nc1cccc(F)c1)Nc1cccc(Cl)c1", 49.9),
    ("COCCOC(=O)NC(=O)Nc1ccc(C(=O)c2ccc(Cl)cc2)cc1", 22.2),
    ("O=C(OCC1OC(n2cc(C(F)(F)F)c(=O)[nH]c2=O)CC1OC(=O)c1ccc([N+](=O)[O-])cc1)c1ccc([N+](=O)[O-])cc1 (stereo not drawn)", 60.4),
    ("O=C(O)c1cc(C(F)(F)F)cc(C(F)(F)F)c1", 85.3),
    ("O=C(CCc1ccccc1)N1CCN(C(=O)CCc2ccccc2)CC1", 94.3),
]

Request: Request body: readout growth, system SR leukemia, query O=C(COc1ccc(Cl)cc1Cl)Oc1coc(CSc2nc3ccccc3s2)cc1=O . Return the value.
Response: 98.6

Request: Same for CCN(CC)CCOC(=O)c1ccc(N=Nc2ccc(O)c(OC)c2)cc1
Response: 84.8

Request: Same for Cc1ccccc1C1=N[C@@H](Cc2ccccc2)C(=O)c2c(nc3ccccn23)N1
Response: 122

Request: Same for Cc1ccc(C(=O)O)c(N)c1C
Response: 98.4

Request: Same for Cc1ccc2oc(=O)cc(/C(=C3/C=CC=N3)c3ccc[nH]3)c2c1
Response: -9.31

Request: Same for O=C1/C(=C/c2cccs2)CCC/C1=C\c1cccs1
Response: 78.1

Request: Same for O=[N+]([O-])C1CC2C=CC1C2 (stereo not drawn)
Response: 92.4

Request: Same for COc1cc(/C=C/C(=O)c2cc(-c3ccc(F)cc3)ccc2O)cc(OC)c1OC
Response: 49.9

Request: Same for O=C(OCc1ncc(-c2ccc(C(F)(F)F)cc2)c(NC2CCCCCC2)n1)c1c(F)c(F)c(F)c(F)c1F
Response: 39.4

Request: Same for CCN(CC)CC(O)Cc1ccc(OC)cc1 (stereo not drawn)
Response: 104

Request: Same for COc1cc(CSc2nc3ccc(Cl)cc3c(=O)n2-c2ccccc2)cc(OC)c1OC
Response: 45.6

Request: Same for COc1ccc(N2CCN(c3nc(-c4ccccc4)c(C#N)c(=O)[nH]3)CC2)cc1
Response: 89.7

Request: Same for c1ccc(CNc2nc(Nc3ccc(-c4nc5ccccc5[nH]4)cc3)c3cn[nH]c3n2)cc1
Response: -13.8

Request: Same for O=C(/C=C/c1nnc2n(Cc3ccccc3)c(=O)c3c4c(sc3n12)CCCC4)c1ccccc1
Response: -5.47

Request: Same for COc1ccc(OC)c([N+](=O)[O-])c1C=O
Response: 37.2

Request: Same for N#CCC1CCCC1
Response: 81.6

Request: Same for C=CCOc1ccc2c(c1)CC[C@@H]1[C@@H]2CC[C@]2(C)C(=O)/C(=N/O)C[C@@H]12
Response: 7.72

Request: Same for COc1ccc(-c2cc(=O)n(-c3nc4ccccc4[nH]3)[nH]2)cc1OC
Response: 48.6

Request: Same for COc1nc2c(c(=O)[nH]1)C(c1ccc(Oc3ccnc4cc(Cl)ccc34)c(OC)c1)C=C(c1cc(OC)c(OC)c(OC)c1)N2 (stereo not drawn)
Response: 74.1

Request: Same for CC(C)c1[nH]nc2c(NCc3ccc(-c4ccccn4)cc3)nc(SCCN(C)C)nc12
Response: -10.3

###

Listed below: growth values for each entry.
Test system: PC-3 prostate
Experiment: NCI-60 one-dose screen, 48 h (100 = growth as untreated, 0 = no growth, -100 = all killed)
Details: 10 µM
This is part of a sample that, as a whole, favours compounds with a hit. Of some 83,000 tested, about 20% had one in any assay.
Give the number; % is assumed, so skip it.

Guide cases for growth, answers given:
# mol, measured.parameter, assay.result
data = [
    ("CCn1nc(-c2ccccn2)c2cccnc2c1=S", "growth", 38.4),
    ("O=C(Nc1cccc(Cl)c1)Nc1cc2ncncc2cc1OCc1cccc(F)c1", "growth", 9.57),
    ("O=C1/C(=C/c2ccc(O)cc2)CSc2ccc(Cl)cc21", "growth", 58.9),
]

Now turn to the next compound.
Request: Requested read-out: growth. Entry: COc1cccc(C(=O)NNc2nc(N3CCN(C4CCCCC4)CC3)nc(N3CCN(C(c4ccccc4)c4ccccc4)CC3)n2)c1
Response: 21

###

System: CAKI-1 renal
Experiment: NCI-60 one-dose screen, 48 h (100 = growth as untreated, 0 = no growth, -100 = all killed)
Details: 10 µM
Compounds without any hit were thinned out: in the full panel of roughly 83,000, 20% have a hit.
measured.parameter: growth (%)
Give the number; % is assumed, so skip it.

# compound, study.system, measured.parameter, measurement.unit, assay.result
data = [
    ("Nc1nc2c(ncn2C2OC3COP(=O)(O)OC4C(COP(=O)(O)OC2C3O)OC(n2cnc3c(N)ncnc32)C4O)c(=O)[nH]1 (centres undefined)", "CAKI-1 renal", "growth", "%", 100),
]

Request: Requested read-out: growth. Entry: CS(=O)(=O)Nc1ccc(OCc2nnc(-c3ccc(Cl)cc3)o2)c(F)c1
Response: 91.3

Request: Same for COc1cc(C(c2c[nH]c3ccccc23)N2CCCC2)ccc1OCc1ccccc1 (centres undefined)
Response: 53.3

Request: Same for CC(=O)Nc1ccc2c(c1)C(N1CC3CCC(CC3)C1)c1ccccc1-2 (centres undefined)
Response: 70.9

###

Test system: OVCAR-5 ovarian
Assay: NCI-60 one-dose screen, 48 h
Details: 10 µM
This is part of a sample that, as a whole, favours compounds with a hit. Of some 83,000 tested, about 20% had one in any assay. Calls of active or inactive are those of the source. How the source made its calls: active means growth percent below 10; inactive means the rest.
Form entry, call: pick from active, inactive

These solved cases illustrate the format of a correct answer.
# mol, answer.label
data = [
    ("O=C(Nc1ccc(CN2CCOCC2)cc1)c1ccc(-c2cc(Cl)ccc2Cl)o1", "inactive"),
    ("COc1ccc2c(=O)cc(C(Cl)(Cl)Cl)oc2c1", "inactive"),
    ("C#CCNCCCN1C(=O)c2ccc3c4c(ccc(c24)C1=O)C(=O)N(CCCNCC#C)C3=O", "active"),
    ("O=C(Nc1ccc(OS(=O)(=O)Cc2ccccc2)cc1)C12CC3CC(CC(C3)C1)C2", "inactive"),
    ("COc1cc(-c2nc3ccccc3[nH]2)ccc1OCc1nnc(-c2ccc(Br)cc2)o1", "inactive"),
    ("CCn1nc(-c2ccc(C(=O)OC)cc2)nc2c(=O)n(C)c(=O)nc1-2", "inactive"),
]

Request: Which result was noted for this molecule in the test: CC(=O)n1nc(C(=O)OC(C)(C)C)c2cc(F)c(F)cc21
Response: inactive

Request: Same for CCCCCc1cc[n+](CC(=O)c2ccc(Cl)cc2)cc1
Response: inactive

Request: Same for CCOC(=O)c1sc(Nc2ncccn2)nc1-c1ccccn1
Response: inactive

Request: Same for COc1cc(OC)cc(-c2ccc(-c3ccc(C(=N)N)cn3)o2)c1
Response: active

Request: Same for Oc1ccc(Cn2cc3c(c2-c2ccccc2)CCc2cnoc2-3)cc1
Response: inactive

Data provenance: PubChem BioAssay (NCI)
